# TGT: recombinant human AChE (Homo sapiens, UniProt P22303)
# Sequence (P22303 32-614): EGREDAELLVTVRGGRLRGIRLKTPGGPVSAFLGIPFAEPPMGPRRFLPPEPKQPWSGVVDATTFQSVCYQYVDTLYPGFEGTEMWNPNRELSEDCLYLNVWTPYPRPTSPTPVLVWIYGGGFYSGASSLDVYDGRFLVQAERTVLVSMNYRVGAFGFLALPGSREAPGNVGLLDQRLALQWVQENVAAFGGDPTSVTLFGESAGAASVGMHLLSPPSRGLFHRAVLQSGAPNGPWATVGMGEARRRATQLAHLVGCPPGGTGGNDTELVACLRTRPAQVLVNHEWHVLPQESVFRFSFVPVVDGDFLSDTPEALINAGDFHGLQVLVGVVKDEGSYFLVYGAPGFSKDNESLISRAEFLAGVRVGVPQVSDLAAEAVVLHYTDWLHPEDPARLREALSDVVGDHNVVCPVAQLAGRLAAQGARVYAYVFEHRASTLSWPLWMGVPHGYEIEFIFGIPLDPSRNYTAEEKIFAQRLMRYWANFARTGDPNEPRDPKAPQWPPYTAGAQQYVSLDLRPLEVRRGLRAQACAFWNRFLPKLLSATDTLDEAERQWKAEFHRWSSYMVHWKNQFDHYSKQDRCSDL
# MEASUREMENT_DESCRIPTION: biochemical
# CONDITION_DETAILS: potency (IC50), Enzyme
Categorize each record by its IC50 using low interval = under 5 µM, middle interval = from 5 µM up to 20 µM, high interval = 20 µM and over

>>> df
                                   compound                                       tgt   category_label
0  Cc1c(Cl)c(=O)oc2cc(OP(=O)(OCCCl)OCCCl)ccc12  recombinant human AChE (Homo sapiens, UniProt P22303)     low interval
1  Cc1ccc2c(n1)Oc1ccc(C(C)C(=O)OCC(=O)N(C)C)cc1C2 (stereo not shown) [Mepranoprofen arbamel, reference compound]  recombinant human AChE (Homo sapiens, UniProt P22303)  middle interval
2  COP(=S)(Oc1cc(Cl)c(Br)cc1Cl)c1ccccc1 (stereo not shown)  recombinant human AChE (Homo sapiens, UniProt P22303)    high interval
3  CNC(=C[N+](=O)[O-])NCCSCc1csc(CN(C)C)n1 [Nizatidine, reference compound]  recombinant human AChE (Homo sapiens, UniProt P22303)  middle interval
4  CS/C(C)=N\OC(=O)N(C)SN(C)C(=O)O/N=C(\C)SC  recombinant human AChE (Homo sapiens, UniProt P22303)  middle interval

Continue with the compound presented below.
# input Could you tell me which band CCCSP(=O)(OCC)Oc1ccc(Br)cc1Cl (stereo not shown) belongs to?
# output low interval

----------
Exercise: state measured pIC50 for each of the compounds provided.
# TGT: AChE in SH-SY5Y spheroids (Homo sapiens, UniProt P22303)
# MEASUREMENT_DESCRIPTION: cell-based
# CONDITION_DETAILS: potency (IC50), SH-SY5Y spheroids (48 h)
Numbers only, as −log10 of the molar value.

>>> df
                                   compound                                       tgt  measurement
0  CN1CCc2cc(Cl)c(O)cc2[C@H]2c3ccccc3CC[C@@H]21 [Ecopipam, reference compound]  AChE in SH-SY5Y spheroids (Homo sapiens, UniProt P22303)         4.75
1  CCN(C(=O)c1cc(C)cc(OC[C@H](C)Nc2ccncc2)c1)C(C)C.Cc1ccc(S(=O)(=O)O)cc1 [GW473178E methyl benzene sulfonic acid]  AChE in SH-SY5Y spheroids (Homo sapiens, UniProt P22303)         4.62
2  CNC(=O)O/N=C/C(C)(C)[S+](C)[O-] (centres unmarked) [Aldicarb sulfoxide]  AChE in SH-SY5Y spheroids (Homo sapiens, UniProt P22303)         6.25

The following compounds each have a reported value; give each one's pIC50.
1. O=C(Nc1cccc(C2=NCCN2)c1)Nc1cccc(C2=NCCN2)c1 [Imidocarb dipropionate, reference compound]
2. CCOP(=S)(OCC)OP(=S)(OCC)OCC [Sulfotepp]

# output
[5.13, 5.39]

The following compounds each have a reported value; give each one's pIC50.
1. CCOP(=S)(Oc1cnc(C(C)(C)C)nc1)OC(C)C (centres unmarked) [Tebupirimfos]
2. Cc1cc(OC(=O)N(C)C)nn1C(=O)N(C)C [Dimetilan]
3. CCN(CC)CCOc1ccc2c(c1)C(=O)c1cc(OCCN(CC)CC)ccc1-2 [Tilorone, reference compound]

# output
4.62
5.15
5.85

----------
# TGT: AChE in SH-SY5Y spheroids (Homo sapiens, UniProt P22303)
# MEASUREMENT_DESCRIPTION: cell-based
# CONDITION_DETAILS: potency (IC50), SH-SY5Y spheroids (24 h)
Where a name gives a salt, the structure may show the parent alone.
RESULT_TYPE: pIC50
One number for each entry, as −log10 of the molar value.

// below: answered molecules
>>> print(df.to_string())
                                   molecule                                       tgt  measurement
0  CN1CCCC(n2nc(Cc3ccc(Cl)cc3)c3ccccc3c2=O)CC1 (stereo not drawn) [Azelastine (hydrochloride), reference compound]  AChE in SH-SY5Y spheroids (Homo sapiens, UniProt P22303)         4.86
1  Cc1nc2n(c(=O)c1CCN1CCC(C(=O)c3ccc(F)cc3)CC1)CCS2 [Setoperone, reference compound]  AChE in SH-SY5Y spheroids (Homo sapiens, UniProt P22303)         5.58
2         CCCCSP(=O)(SCCCC)SCCCC [Tribufos]  AChE in SH-SY5Y spheroids (Homo sapiens, UniProt P22303)         4.92
3         CNC(=O)Oc1ccccc1OC(C)C [Propoxur]  AChE in SH-SY5Y spheroids (Homo sapiens, UniProt P22303)         5.45
4  CNC(=O)Oc1cccc2c1OC(C)(C)O2 [Bendiocarb]  AChE in SH-SY5Y spheroids (Homo sapiens, UniProt P22303)         4.35
5  [H]/N=C(\N/C(=N/[H])NCCCCCCNC(=N)NC(=N)Nc1ccc(Cl)cc1)Nc1ccc(Cl)cc1 [Chlorhexidine diacetate, reference compound]  AChE in SH-SY5Y spheroids (Homo sapiens, UniProt P22303)         4.44
6    CNC(=O)Oc1cc(C)cc(C(C)C)c1 [Promecarb]  AChE in SH-SY5Y spheroids (Homo sapiens, UniProt P22303)         5.86
7  COc1ccc(C(=O)NCc2ccc(OCCN(C)C)cc2)cc1OC.Cl [Itopride hydrochloride, reference compound]  AChE in SH-SY5Y spheroids (Homo sapiens, UniProt P22303)         5.35

Now turn to the next molecule.
# input Any idea what pIC50 was measured for Cc1nc(N(C)C)nc(OC(=O)N(C)C)c1C [Pirimicarb] ?
# output 5.15

----------
Exercise: state measured IC50 for each of the compounds provided.
# TGT: AChE in neural stem cell spheroids (Homo sapiens)
# MEASUREMENT_DESCRIPTION: cell-based
# CONDITION_DETAILS: potency (IC50), Neural stem cell spheroid (24 h)
Counter-ions that a name gives are not always drawn.
One number for each entry, in µM.

// below: answered compounds
COMPOUND	UNITS_OF_MEASURE	IC50
CCCCN(CCCC)SN(C)C(=O)Oc1cccc2c1OC(C)(C)C2	µM	5.25
Cc1nc(N(C)C)nc(OC(=O)N(C)C)c1C	µM	1.4
CCOP(=S)(OCC)OP(=S)(OCC)OCC	µM	0.06

The following compounds each have a reported value; give each one's IC50.
1. CCOC(=O)c1cn2nc(OP(=S)(OCC)OCC)cc2nc1C
2. CN1C[C@H](CNC(=O)OCc2ccccc2)C[C@@H]2c3cccc4c3c(cn4C)C[C@H]21 [Metergoline, reference compound]
3. O=C(c1ccc(OCCN2CCCCC2)cc1)c1c(-c2ccc(O)cc2)sc2cc(O)ccc12 [Raloxifene hydrochloride, reference compound]
4. CCOC(=O)C(SP(=S)(OC)OC)c1ccccc1 (stereo not drawn) [Phenthoate]
5. CCCSP(=O)(OCC)Oc1ccc(Br)cc1Cl (stereo not drawn)
6. CCOP(=O)(Sc1ccccc1)Sc1ccccc1
7. O=c1[nH]c2ccc([S+]([O-])CCN3CCC(Cc4ccc(F)cc4)CC3)cc2o1 (stereo not drawn) [Besonprodil, reference compound]
8. CCOP(=S)(OCC)O/N=C(\C#N)c1ccccc1

# output
[2.46, 5.79, 6.29, 26.5, 0.2, 0.88, 11.5, 0.33]

----------
Exercise: state measured CC-v2 (curve classes) for each of the compounds provided.
# TGT: AChE in SH-SY5Y cells (Homo sapiens)
# MEASUREMENT_DESCRIPTION: cell-based
Numbers only.

// below: answered compounds
>>> print(df.to_string())
                                   compound                                   tgt  measurement
0  Cl.O=C(c1ccc(F)cc1)C1CCN(CCn2c(=S)[nH]c3ccccc3c2=O)CC1 [Altanserin hydrochloride]  AChE in SH-SY5Y cells (Homo sapiens)         -2.1
1  CC(C)=CCN1CC[C@@]2(C)c3cc(O)ccc3C[C@@H]1[C@@H]2C.O=C(O)CCC(=O)O [(-)-Pentazocine succinate, reference compound]  AChE in SH-SY5Y cells (Homo sapiens)         -2.1
2  CNC(=C[N+](=O)[O-])NCCSCc1ccc(CN(C)C)o1 [Ranitidine, reference compound]  AChE in SH-SY5Y cells (Homo sapiens)         -1.1

Now turn to the next compound.
# input Any idea what CC-v2 (curve classes) was measured for "COP(=O)(OC)SCn1c(=O)oc2cc(Cl)cnc21" ?
# output -1.1
